experiment: The drug is tested on the gut metagenome community of MV23 with ENA study accession number: PRJEB31790 and ENA sample accession number: SAMEA5537504 for biotransformation. The drug concentrations were measured over 9 timepoints collected between 0 and 24 hours of incubation by liquid-chromatography-coupled mass spectrometry (LC–MS); format: ADME; design: dose 2 uM, timepoint 0, 1, 2, 4, 6, 8, 12, 18, 24 hours; settings: 2 µM
property.measured: Bacterial Biotransformation

>>> print(df.to_string())
                                   molecule            property_measured             readout_value
0  C[C@@H]1C[C@H]2[C@@H]3CCC4=CC(=O)C=C[C@]4(C)[C@@]3(F)[C@@H](O)C[C@]2(C)[C@@]1(O)C(=O)CO [DEXAMETHASONE]  Bacterial Biotransformation  Compound NOT metabolized
1  CC(=O)OCC(CCn1cnc2cnc(N)nc21)COC(C)=O [FAMCICLOVIR]  Bacterial Biotransformation      Compound metabolized
2  COc1ccc([C@@H]2Sc3ccccc3N(CCN(C)C)C(=O)[C@@H]2OC(C)=O)cc1 [DILTIAZEM]  Bacterial Biotransformation  Compound NOT metabolized
3  C#C[C@]1(OC(C)=O)CC[C@H]2[C@@H]3CCC4=CC(=O)CC[C@@H]4[C@H]3CC[C@@]21C [NORETHINDRONE ACETATE]  Bacterial Biotransformation      Compound metabolized

====

test: The drug is tested on Blautia hansenii strain: DSM20583 for biotransformation. The drug concentrations were measured before and after a 12-h incubation by liquid-chromatography-coupled mass spectrometry (LC–MS); conditions: 2 µM
property.measured: Bacterial Biotransformation

Please review the entries below; each comes with its answer.
molecule	readout.value
CN1C[C@H](C(=O)N[C@]2(C)O[C@@]3(O)[C@@H]4CCCN4C(=O)[C@H](Cc4ccccc4)N3C2=O)C=C2c3cccc4[nH]cc(c34)C[C@H]21.CN1C[C@H](C(=O)N[C@]2(C)O[C@@]3(O)[C@@H]4CCCN4C(=O)[C@H](Cc4ccccc4)N3C2=O)C=C2c3cccc4[nH]cc(c34)C[C@H]21.O=C(O)C(O)C(O)C(=O)O [ERGOTAMINE TARTRATE]	Compound metabolized
CC(=O)Nc1ccc(OC(C)=O)cc1 [DIACETAMATE]	Compound NOT metabolized
Cc1ccccc1C(OCCN(C)C)c1ccccc1.O=C(O)CC(O)(CC(=O)O)C(=O)O (stereo unspecified) [ORPHENADRINE CITRATE]	Compound metabolized
CCCC1O[C@@H]2C[C@H]3[C@@H]4CCC5=CC(=O)C=C[C@]5(C)[C@H]4[C@@H](O)C[C@]3(C)[C@]2(C(=O)CO)O1 (stereo partly specified) [BUDESONIDE]	Compound metabolized
CCN(CC)C(C)CN1c2ccccc2Sc2ccccc21 (stereo unspecified) [ETHOPROPAZINE]	Compound metabolized

Query molecule follows.
## Input Please give the documented Bacterial Biotransformation of O=C(CCCN1CCC2(CC1)C(=O)NCN2c1ccccc1)c1ccc(F)cc1 [SPIPERONE]
## Output Compound NOT metabolized

====

conditions: roseburia intestinalis, 12 h, 2 µM
Description: The drug is tested on Roseburia intestinalis strain: L1-82 for biotransformation. The drug concentrations were measured before and after a 12-h incubation by liquid-chromatography-coupled mass spectrometry (LC–MS)
property.measured: Bacterial Biotransformation

compound	readout.value
Clc1ccc(Cn2c(CN3CCCC3)nc3ccccc32)cc1 [CLEMIZOLE]	Compound NOT metabolized
CC(C)c1nc(N(C)S(C)(=O)=O)nc(-c2ccc(F)cc2)c1/C=C/[C@@H](O)C[C@@H](O)CC(=O)[O-].CC(C)c1nc(N(C)S(C)(=O)=O)nc(-c2ccc(F)cc2)c1/C=C/[C@@H](O)C[C@@H](O)CC(=O)[O-].[Ca+2] [ROSUVASTATIN CALCIUM]	Compound NOT metabolized
COc1ccc(Cc2nccc3cc(OC)c(OC)cc23)cc1OC [PAPAVERINE]	Compound NOT metabolized
OC(c1cc(C(F)(F)F)nc2c(C(F)(F)F)cccc12)C1CCCCN1 (configuration not stated) [MEFLOQUINE]	Compound metabolized
COC(=O)C1=C(C)NC(C)=C(C(=O)OC(C)C)C1c1cccc2nonc12 (configuration not stated) [ISRADIPINE]	Compound NOT metabolized
CC(C)(C)NC[C@H](O)COc1ccccc1C1CCCC1.CC(C)(C)NC[C@H](O)COc1ccccc1C1CCCC1.O=S(=O)(O)O [PENBUTOLOL SULFATE]	Compound NOT metabolized

Okay, now this compound:
## Input Read the entry Nc1ccc(/N=N/c2ccccc2)c(N)n1 [PHENAZOPYRIDINE] and write its reported Bacterial Biotransformation.
## Output Compound metabolized
